Assay: yeast display, Sf9 membrane polyspecificity reagent, FACS + sequencing; frameworks hold sequencing errors
OUTCOME MEASURE: polyreactivity (PSR sort gate)

[[record]]
record_sequence = "QVQLVESGGGLVQAGGRLRLSCAASGRISYYYTMGWYRQAPGKERQLVAAISWSGGTTYYADSVKGRFTISRDNAKNTVYLQMNSLKPEDTAVYYCAAREYYTDVHGTRRYDYWGQGTQVTVSS"
assay_value = "low polyreactivity"

[[record]]
record_sequence = "QVQLVESGGGLVQAGGSLRLSCAPSGLIIWDYVMGWYRQAPGKERELVAAISRSGGRTYYADSVKGRFTISRDNAKNTVYLQMNSLKPEDTAVYYCAARVRFSYASRSGYWGQGTQVTVSS"
assay_value = "high polyreactivity"

[[record]]
record_sequence = "QVQLVESGGGLVQAGGSLRLSCAASGSIFVYNAMGWYRQAPGKERELVAAIDTVGSTNYADSVKGRFTISRDNAKNTVYLQMNSVKPVDPAVYYCAVVTPYWSFYEQVIPSNYWGQGTQVTVSS"
assay_value = "low polyreactivity"

[[record]]
record_sequence = "QVQLVESGGGLVQAGGSLRLSCAASGRIFRGNAMGWYRQVPGKERELVAAISSGTRTTYADSVKGRFTISRDNAKNTVYLQMNSLKPEDTAVYYCAAYNSYLGYPYYYWGQGTQVTVSS"
assay_value = "high polyreactivity"

[[record]]
record_sequence = "QVQLVESGGGLVQAGGSLRLSCAASGSTLSYYAMGWYRQAPGKERELVAAISFSGGITYYADSVKGRFTISRDNAKNTVYLQMNSLKPEDTAVYYCNAEYQVYRAYVIWYDYWGQGTQVTVSS"
assay_value = "high polyreactivity"

[[record]]
record_sequence = "QVQLVESGGGLVQAGGSLRLSCAASGDTFTSYAMGWYRQAPGKERELVAAISRRGGSTYYADSVKGRFTISRDNAKNTVYLQMNSLKPEDTAVYYCAAKSYSYTEFDYWGQGTQVTVSS"
assay_value = "high polyreactivity"

[[record]]
record_sequence = "QVQLVESGGGLVQAGGSLRLSCAASGRIFGYNALGWYRQAPGKERELVAAINSDGSKNYADSVKGRFTISRDNAKNTVYFQMNSLNPEDTALYYCNKELYPVGDYEYWGEGTQVTVSS"
assay_value = "low polyreactivity"

[[record]]
record_sequence = "QVQLVESCGGLVQAGGSLRLSCAASGSIFSGYAMGWYRQAPWKERELVAAITWRAASTYYADSVTGRFTISRDNAMNTVYLQMNSLKPEDTAVYYCAKEGWPKPAFYYCGQGTQVTVSS"
assay_value = "low polyreactivity"

[[record]]
record_sequence = "QVQLVESGGGLVQAGGSLRLSCAASGFIFSPNAMGWYRQAPGKEREFVAAIRYSGTSTSYADSVKGRFTISRDNAKNTVYLQMNSLKPEDTAVYYCNAQWRFSRGYTYNYWGQGTQVTVSS"
assay_value = "high polyreactivity"

[[record]]
record_sequence = "QVQLVESGGGLVQAGGSLRLSCAAAGTTFSHNTMGWYRQAPGKERELVAAITSGGTTYYADSVKGRFTISRDNAKNTVYLQMMSLKPEDTAVYYCAALRPRGGYYYWGQGTQVTVSS"
assay_value = "high polyreactivity"

[[record]]
record_sequence = "QVQLVESGGGLVQAGGSLRLSCAASGRIFNVYAMGWYRQAPGKERELVASITSAGSTYYADSVKGRFTISRDNAKNTVYLQMNSLKPEDTPVYDCAADSYSVYYYTYDSWGQGTQVTVSS"
assay_value = "low polyreactivity"

